Tested on: anesthetized guinea-pig
Assay: Inotropic effect and lethal dose, slow intravenous infusion in anesthetized guinea-pig
Conditions: slow intravenous infusion over 90 minutes
Structures can show the parent of a compound that is named as a salt.
OUTCOME_MEASURE: Emax % increase in +dP/dTmax (%)
# value in %; strip the unit string

Solved cases (3 shown):
MOLECULE: CC12CCC3C(NCCC4CC(=NOC5CCNC5)CCC43C)C1CCC2=O (stereo not shown) [I-ba]
ASSAY_SYSTEM: anesthetized guinea-pig
RECORDED_VALUE: 218

MOLECULE: C[C@H]1O[C@@H](O[C@H]2[C@@H](O)C[C@H](O[C@H]3[C@@H](O)C[C@H](O[C@H]4CC[C@@]5(C)[C@H](CC[C@@H]6[C@@H]5C[C@@H](O)[C@]5(C)[C@@H](C7=CC(=O)OC7)CC[C@]65O)C4)O[C@@H]3C)O[C@@H]2C)C[C@H](O)[C@@H]1O [digoxin, reference compound]
ASSAY_SYSTEM: anesthetized guinea-pig
RECORDED_VALUE: 158

MOLECULE: CC12CCC3C(OC(=O)CC4CC(=NOC5CCNC5)CCC43C)C1CCC2=O (stereo not shown) [I-bk, hydrochloride]
ASSAY_SYSTEM: anesthetized guinea-pig
RECORDED_VALUE: 254

Consider now this further molecule.
Exam item: Return the recorded Emax % increase in +dP/dTmax value; entry: C[C@]12CCC(=NOCCN)CC1C(=O)C[C@@H]1[C@@H]2CC[C@]2(C)C(=O)CC[C@@H]12.Cl (mixture of isomers) [Compd. 22b, reference compound]
Marked response: 182
